targetSystem: human IL-17AA (Homo sapiens)
Sequence (Q16552 24-155): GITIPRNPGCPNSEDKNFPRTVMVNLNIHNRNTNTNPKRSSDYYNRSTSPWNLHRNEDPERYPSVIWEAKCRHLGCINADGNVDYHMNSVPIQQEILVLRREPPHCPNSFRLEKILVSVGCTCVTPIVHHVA
Sequence (Q16552 24-155): as above
experimentDescription: IL-8 release assay in human epithelial keratinocytes adult (HEKa)
measurementConditions: 3 ng/ml human IL-17AA + 10 ng/ml human TNFalpha, 68-72 h, IL-8 by HTRF, read-out: Rel EC50 L-8 release assay
pEC50: −log10 of the molar value.
compounds and their reported pEC50

compound	pEC50
Cc1cnn(C)c1-c1ccc(NC(=O)[C@@H](NC(=O)c2ccnn2C)[C@@H]2CCc3ccc(-c4ccnc(N5C[C@@H]6C[C@H]5CO6)c4)cc32)cc1 [Example 378]	> 7.00
CC(C)n1cc(-c2ccc(Cl)c(C[C@H](NC(=O)C3CC3(C)C)C(=O)Nc3ccc(-c4nncn4C)cc3)c2)ccc1=O (stereo partly drawn) [Example 154]	< 6.00
Cc1nccn1-c1ccc(NC(=O)[C@@H](NC(=O)c2ccnn2C)[C@@H]2CCCc3ccc(-c4ccnc(N5C[C@@H]6C[C@H]5CO6)c4)cc32)cc1 [Example 402]	> 7.00
Cc1n[nH]c(C)c1-c1ccc(NC(=O)[C@H](Cc2cc(-c3ccnc(N4CCCC5(COC5)C4)n3)ccc2Cl)NC(=O)C2(F)CC2)cc1 [Example 319]	> 7.00
Cc1n[nH]c(C)c1-c1ccc(NC(=O)[C@@H](NC(=O)C2(F)CC2)[C@@H]2CCCc3ccc(-c4ccc(=O)n(C(C)C)c4)cc32)cc1 [Example 27]	> 7.00
Cc1n[nH]c(C)c1-c1ccc(NC(=O)[C@@H](NC(=O)C2(F)CC2)[C@@H]2CCc3ccc(-c4cnn(C(C)(C)CO)c4)cc32)cc1 [Example 12]	> 7.00

====

targetSystem: human IL-17AA (Homo sapiens)
experimentDescription: IL-8 release assay in human epithelial keratinocytes adult (HEKa)
measurementConditions: 3 ng/ml human IL-17AA + 10 ng/ml human TNFalpha, 68-72 h, IL-8 by HTRF, read-out: Rel EC50 L-8 release assay

compound	EC50
Cc1cc(-c2ccc(Cl)c(CC(NC(=O)c3ccnn3C)C(=O)Nc3ccc(-c4nncn4C4CC4)cc3)c2)ccn1 (centres unmarked) [Example 73]	> 1000 nM
CC(C)n1cc(-c2ccc3c(c2)[C@H]([C@H](NC(=O)OC2CC2)C(=O)Nc2ccc(-c4cncn4C)c(O)c2)CCC3)ccc1=O [Example 31]	< 100 nM
Cn1cnnc1-c1ccc(NC(=O)C(Cc2cc(-c3ccc(C#N)cc3)ccc2Cl)NC(=O)c2ccnn2C)cc1 (centres unmarked) [Example 308]	> 1000 nM
Cc1cnn(C)c1-c1ccc(NC(=O)[C@@H](NC(=O)c2ccnn2C)[C@@H]2CCc3ccc(-c4cncc(C5CC5)n4)cc32)cc1 [Example 380]	100 to 1000 nM
Cc1cnn(C)c1-c1ccc(NC(=O)[C@@H](NC(=O)c2ccnn2C)[C@@H](c2cccc(-c3cncc(N4C[C@@H]5C[C@H]4CO5)n3)c2)C2CC2)cc1 [Example 349]	< 100 nM
Cc1nccn1-c1ccc(NC(=O)[C@@H](NC(=O)C2(F)CC2)[C@@H]2CCCc3ccc(-c4ccnc(N5C[C@@H]6C[C@H]5CO6)c4)cc32)cc1 [Example 400]	100 to 1000 nM
Cc1cnn(C)c1-c1ccc(NC(=O)[C@H](Cc2cc(-c3ccc(=O)n(C(C)C)c3)ccc2Cl)NC(=O)c2cn[nH]c2)cc1 [Example 323]	100 to 1000 nM
Cc1n[nH]c(C)c1-c1ccc(NC(=O)[C@@H](NC(=O)C2(F)CC2)[C@@H]2CCc3ccc(-c4ccnc(N5C[C@@H]6C[C@H]5CO6)c4)cc32)cc1 [Example 354]	< 100 nM
CC(C)n1cc(-c2cccc(C(c3ccccc3)C(NC(=O)OC3CC3)C(=O)Nc3ccc(-c4cncn4C)cc3)c2)ccc1=O (single isomer, unassigned; diastereomer 3) [Example 240]	> 1000 nM
CC(C)c1cc(-c2ccc(Cl)c(CC(NC(=O)c3ccnn3C)C(=O)Nc3ccc(-c4nncn4C4CC4)cc3)c2)ccn1 (centres unmarked) [Example 74]	100 to 1000 nM
Cc1n[nH]cc1-c1ccc(NC(=O)C(NC(=O)OC2CC2)C(c2ccccc2)c2cccc(-c3ccc(=O)n(C(C)C)c3)c2)cc1 (single isomer, unassigned; diastereomer 2) [Example 243]	100 to 1000 nM
Cc1cnn(C)c1-c1ccc(NC(=O)[C@H](Cc2cc(-c3ccc(=O)n(C(C)C)c3)ccc2Cl)NC(=O)C2(F)CCC2)cc1 [Example 331]	< 100 nM
Cn1cncc1-c1ccc(NC(=O)C(Cc2cc(-c3ccnc(N4CC[C@H](O)C4)c3)ccc2Cl)NC(=O)c2ccnn2C)cc1 (some centres unmarked) [Example 191]	100 to 1000 nM
CC(C)n1cc(-c2ccc(Cl)c(C[C@H](NC(=O)c3ccnn3C)C(=O)Nc3ccc(-c4cn[nH]c4)c(F)c3)c2)ccc1=O [Example 138]	100 to 1000 nM
Cc1cnn(C)c1-c1ccc(NC(=O)[C@H](Cc2cc(-c3ccc(=O)n(C(C)C)c3)ccc2Cl)NC(=O)C2(F)CC2)cc1 [Example 119]	100 to 1000 nM
Cc1n[nH]c(C)c1-c1ccc(NC(=O)[C@@H](NC(=O)C2(F)CC2)[C@@H]2CCCc3ccc(-c4ccnc(N5C[C@@H]6C[C@H]5CO6)c4)cc32)cc1 [Example 29]	< 100 nM
Cc1nn(C)cc1-c1ccc(NC(=O)[C@@H](NC(=O)C2(F)CC2)[C@@H]2CCc3ccc(-c4ccnc(N5C[C@@H]6C[C@H]5CO6)c4)cc32)cc1 [Example 372]	100 to 1000 nM
Cc1ncn(C)c1-c1ccc(NC(=O)[C@H](Cc2cc(-c3ccc(=O)n(C(C)C)c3)ccc2Cl)NC(=O)OC2CC2)cc1 [Example 201]	100 to 1000 nM
COCCOCCn1cc(-c2ccc(-c3ccc(Cl)c(CC(NC(=O)c4ccnn4C)C(=O)Nc4ccc(-c5c(C)n[nH]c5C)cc4)c3)cc2)nn1 (centres unmarked) [Example 313]	< 100 nM
Cn1cncc1-c1ccc(NC(=O)C(Cc2cc(-c3ccnc(N4CC[C@H](CO)C4)c3)ccc2Cl)NC(=O)c2ccnn2C)cc1 (some centres unmarked) [Example 185]	100 to 1000 nM
Cc1n[nH]c(C)c1-c1ccc(NC(=O)[C@@H](NC(=O)C2(F)CC2)[C@@H]2CCc3ccc(-c4cc(N5C[C@@H]6C[C@H]5CO6)ncn4)cc32)cc1 [Example 356]	100 to 1000 nM
Cc1n[nH]cc1-c1ccc(NC(=O)C(NC(=O)c2ccnn2C)C(c2ccccc2)c2cccc(-c3ccc(=O)n(C(C)C)c3)c2)cc1 (single isomer, unassigned; diastereomer 2) [Example 236]	< 100 nM
Cc1n[nH]c(C)c1-c1ccc(NC(=O)[C@@H](NC(=O)C2(F)CC2)[C@@H]2CCc3ccc(-c4cc(C)c(=O)n(C(C)C)c4)cc32)cc1 [Example 357]	< 100 nM
